Kindly supply the reported logP values for the records listed here.
PROCEDURE SUMMARY: method code SF, from Rulke, H.; Friedel, A.; Martin, E.; Kottke, K.; Grafe, I.; Kuhmstedt, H. (1991). Investigations on the acidity ond partition properties of 1-phenyl-5-mercaptotetrazoles. Pharmazie, 46(6)456-457.
Lab note: jot the number down without any unit.

What does the record list as logP for S=c1[nH]nnn1-c1cccc(Cl)c1Cl ?
2.41

What would you report for S=c1[nH]nnn1-c1ccc(Cl)cc1Cl ?
2.89

Item: S=c1[nH]nnn1-c1ccc2ccccc2c1
2.63

Here is the next compound: S=c1[nH]nnn1-c1cccc(Br)c1
2.39

And S=c1[nH]nnn1-c1ccc(Br)cc1 ?
2.54

What do we get for Cc1cccc(-n2nn[nH]c2=S)c1 ?
2.29
